# tested_system: T1, TCV P38 (capsid protein, VSR) wild type (Turnip crinkle virus (pTCV cDNA), UniProt P06663 1-351)
# T1 sequence: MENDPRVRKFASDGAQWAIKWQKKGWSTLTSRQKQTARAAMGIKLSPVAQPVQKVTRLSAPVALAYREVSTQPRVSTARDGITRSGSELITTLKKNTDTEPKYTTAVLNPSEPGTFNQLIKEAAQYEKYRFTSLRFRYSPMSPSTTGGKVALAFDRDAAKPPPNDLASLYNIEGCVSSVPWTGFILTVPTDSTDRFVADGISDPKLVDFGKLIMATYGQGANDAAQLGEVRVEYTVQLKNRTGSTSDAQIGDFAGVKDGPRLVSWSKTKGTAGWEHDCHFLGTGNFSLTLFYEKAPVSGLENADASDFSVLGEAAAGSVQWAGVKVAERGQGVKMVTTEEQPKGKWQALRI
# method_description: EMSA
reported_property: pKd
Convention used: pKd is expressed as -log10 of the molar concentration.

binder	pKd
siR gf698_21 (dsRNA, 5'-phosphate) RNA 1: UAGUUCAUCCAUGCCAUGUGU RNA 2: ACAUGGCAUGGAUGAACUAUA	9.25
siR gf698_24 (dsRNA, 5'-phosphate) RNA 1: UAGUUCAUCCAUGCCAUGUGUAAU RNA 2: UACACAUGGCAUGGAUGAACUAUA	9.36
AtmiR403a (dsRNA, 5'-phosphate) RNA 1: UUAGAUUCACGCACAAACUCG RNA 2: UGUUUUGUGCUUGAAUCUAAUU	9.06
NbmiR403a (dsRNA, 5'-phosphate) RNA 1: UUAGAUUCACGCACAAACUCG RNA 2: UGUUUGUGCGUGAAUCUGACA	9.44
AtmiR168 (dsRNA, 5'-phosphate) RNA 1: UCGCUUGGUGCAGGUCGGGAA RNA 2: CCCGCCUUGCAUCAACUGAAU	9.26
siR gf698_22 (dsRNA, 5'-phosphate) RNA 1: UAGUUCAUCCAUGCCAUGUGUA RNA 2: CACAUGGCAUGGAUGAACUAUA	9.28
NbmiR403b (dsRNA, 5'-phosphate) RNA 1: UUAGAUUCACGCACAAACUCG RNA 2: UGUUUGUGCGUGAUUCUGACA	8.90

Now for the binder whose pKd we want.
Record AtmiR162 (dsRNA, 5'-phosphate) RNA 1: UCGAUAAACCUCUGCAUCCAG RNA 2: GGAGGCAGCGGUUCAUCGAUC . Reported pKd: 9.52
